Data credit: patent US11787785B2

# log10(DC50) listing for each entry below
target: WIZ protein (HiBit-WIZ fusion protein) (Homo sapiens, UniProt O95785+Q96SW2); construct: expressed in transfected cells; assay: Quantification of WIZ protein levels in HiBit tag fusion protein assay (WIZ HiBit assay in 293T cells); type: cell-based; settings: WIZ HiBit assay in 293T cells; 10-point, 5-fold dose response, highest concentration 25 μM, about 18 hours; read-out: WIZ AC50
Sequence (O95785 whole entry, the tested form may be a part): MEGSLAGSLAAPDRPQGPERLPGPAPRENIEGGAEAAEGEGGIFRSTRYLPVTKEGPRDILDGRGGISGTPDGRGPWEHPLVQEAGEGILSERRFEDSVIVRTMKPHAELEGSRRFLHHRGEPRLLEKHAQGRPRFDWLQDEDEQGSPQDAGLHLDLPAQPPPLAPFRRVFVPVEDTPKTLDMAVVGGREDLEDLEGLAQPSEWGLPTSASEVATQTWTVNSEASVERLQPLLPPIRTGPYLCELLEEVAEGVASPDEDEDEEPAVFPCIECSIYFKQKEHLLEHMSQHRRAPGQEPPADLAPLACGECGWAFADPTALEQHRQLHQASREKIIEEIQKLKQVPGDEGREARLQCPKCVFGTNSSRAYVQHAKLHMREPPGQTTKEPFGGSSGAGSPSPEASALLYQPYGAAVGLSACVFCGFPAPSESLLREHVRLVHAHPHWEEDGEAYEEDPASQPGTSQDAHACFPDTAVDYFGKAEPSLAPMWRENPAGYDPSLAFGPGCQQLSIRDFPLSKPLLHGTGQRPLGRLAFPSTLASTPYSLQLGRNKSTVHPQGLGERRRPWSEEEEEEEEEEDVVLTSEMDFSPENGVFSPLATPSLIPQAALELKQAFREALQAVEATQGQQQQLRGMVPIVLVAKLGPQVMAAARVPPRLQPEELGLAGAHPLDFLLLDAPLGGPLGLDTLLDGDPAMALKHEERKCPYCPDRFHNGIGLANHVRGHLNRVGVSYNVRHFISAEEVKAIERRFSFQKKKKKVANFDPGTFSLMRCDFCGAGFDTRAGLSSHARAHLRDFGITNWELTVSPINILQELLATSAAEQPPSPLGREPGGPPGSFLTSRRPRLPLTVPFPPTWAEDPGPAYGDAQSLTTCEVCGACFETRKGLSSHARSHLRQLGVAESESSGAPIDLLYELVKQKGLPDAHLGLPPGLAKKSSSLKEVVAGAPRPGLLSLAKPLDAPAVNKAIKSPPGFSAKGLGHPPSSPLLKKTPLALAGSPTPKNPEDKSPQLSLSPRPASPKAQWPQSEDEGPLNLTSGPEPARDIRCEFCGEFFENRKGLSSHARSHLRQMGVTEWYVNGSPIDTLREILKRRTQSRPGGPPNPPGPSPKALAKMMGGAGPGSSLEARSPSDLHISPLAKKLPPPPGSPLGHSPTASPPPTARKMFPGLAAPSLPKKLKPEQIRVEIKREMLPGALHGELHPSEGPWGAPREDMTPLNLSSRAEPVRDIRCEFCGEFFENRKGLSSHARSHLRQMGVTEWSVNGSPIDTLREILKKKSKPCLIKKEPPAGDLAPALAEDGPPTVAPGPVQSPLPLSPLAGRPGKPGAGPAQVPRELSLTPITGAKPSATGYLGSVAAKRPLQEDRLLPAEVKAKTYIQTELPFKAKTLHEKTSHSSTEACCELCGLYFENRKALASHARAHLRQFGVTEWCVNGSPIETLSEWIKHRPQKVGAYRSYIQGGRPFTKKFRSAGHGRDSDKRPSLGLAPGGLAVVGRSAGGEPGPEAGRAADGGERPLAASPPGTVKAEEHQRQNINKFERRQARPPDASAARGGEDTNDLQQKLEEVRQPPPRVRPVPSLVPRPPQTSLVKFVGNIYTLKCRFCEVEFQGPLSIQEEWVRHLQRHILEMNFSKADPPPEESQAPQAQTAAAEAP
Sequence (Q96SW2 whole entry, the tested form may be a part): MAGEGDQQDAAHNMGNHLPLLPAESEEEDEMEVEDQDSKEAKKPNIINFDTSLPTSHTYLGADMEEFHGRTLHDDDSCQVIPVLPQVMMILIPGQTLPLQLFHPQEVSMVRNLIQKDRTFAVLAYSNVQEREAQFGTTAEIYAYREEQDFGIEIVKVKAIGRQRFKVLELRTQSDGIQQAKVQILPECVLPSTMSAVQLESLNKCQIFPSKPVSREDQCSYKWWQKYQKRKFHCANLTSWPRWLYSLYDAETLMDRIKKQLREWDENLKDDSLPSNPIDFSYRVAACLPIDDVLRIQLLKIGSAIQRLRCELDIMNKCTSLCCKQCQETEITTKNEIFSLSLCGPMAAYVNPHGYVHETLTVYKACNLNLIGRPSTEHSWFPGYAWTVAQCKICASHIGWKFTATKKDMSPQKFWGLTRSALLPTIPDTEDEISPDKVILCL
Sequence (Q16531 whole entry partner, the tested form may be a part): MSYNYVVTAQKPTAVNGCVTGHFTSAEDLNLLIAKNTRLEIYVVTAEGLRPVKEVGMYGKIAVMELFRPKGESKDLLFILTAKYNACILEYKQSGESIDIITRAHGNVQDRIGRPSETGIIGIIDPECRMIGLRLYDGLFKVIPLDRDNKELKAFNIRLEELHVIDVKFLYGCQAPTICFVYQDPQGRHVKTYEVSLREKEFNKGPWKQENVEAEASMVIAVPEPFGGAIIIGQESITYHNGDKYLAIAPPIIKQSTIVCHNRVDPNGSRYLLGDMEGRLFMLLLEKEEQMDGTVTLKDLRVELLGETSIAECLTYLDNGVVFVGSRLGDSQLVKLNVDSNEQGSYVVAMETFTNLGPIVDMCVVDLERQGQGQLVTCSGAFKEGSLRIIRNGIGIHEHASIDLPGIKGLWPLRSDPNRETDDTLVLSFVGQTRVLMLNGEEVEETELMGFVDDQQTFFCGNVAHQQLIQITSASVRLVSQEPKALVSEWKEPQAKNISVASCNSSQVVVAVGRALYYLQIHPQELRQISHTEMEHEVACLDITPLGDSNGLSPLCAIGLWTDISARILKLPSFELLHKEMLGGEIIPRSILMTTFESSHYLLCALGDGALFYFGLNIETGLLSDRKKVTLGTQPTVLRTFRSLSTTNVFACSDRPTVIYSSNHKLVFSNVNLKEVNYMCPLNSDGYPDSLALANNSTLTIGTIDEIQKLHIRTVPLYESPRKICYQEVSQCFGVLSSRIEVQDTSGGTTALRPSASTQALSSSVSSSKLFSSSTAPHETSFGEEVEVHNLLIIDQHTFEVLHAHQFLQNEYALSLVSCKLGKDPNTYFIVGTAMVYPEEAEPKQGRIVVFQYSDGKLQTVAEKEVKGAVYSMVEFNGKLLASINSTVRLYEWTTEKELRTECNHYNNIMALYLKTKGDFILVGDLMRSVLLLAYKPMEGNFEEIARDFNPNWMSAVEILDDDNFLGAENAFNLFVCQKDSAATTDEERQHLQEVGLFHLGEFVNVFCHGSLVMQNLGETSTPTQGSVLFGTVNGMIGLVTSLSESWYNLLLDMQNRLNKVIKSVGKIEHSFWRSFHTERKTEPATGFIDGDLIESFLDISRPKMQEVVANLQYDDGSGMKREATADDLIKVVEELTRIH
The figures below represent log10 of DC50, where DC50 is stated in nM.

COMPOUND	ASSAY_VALUE
CC(C)CN1CCN(Cc2ccn3ncc(N4CCC(=O)NC4=O)c3c2)C[C@@H]1C [Example 203]	1.40
O=C1CCN(c2cnn3ccc(CC4CCN(CC(F)F)CC4)cc23)C(=O)N1 [Example 43]	1.53
C[C@H]1CN(Cc2ccn3ncc(N4CCC(=O)NC4=O)c3c2)CCN1CC1CCC1 [Example 213]	1.68
O=C1CCN(c2cnn3ccc(CN4CCN(CC5CCCCC5)CC4)cc23)C(=O)N1 [Example 156]	1.36
O=C1CCN(c2cnn3ccc(CC4CCN(Cc5ccc(F)c(F)c5)CC4)cc23)C(=O)N1 [Example 45]	1.36

[Q] What measured log10(DC50) goes with O=C1CCN(c2cnn3ccc(CC4CCN(CC(F)(F)F)CC4)cc23)C(=O)N1 [Example 30] ?
[A] 2.30

[Q] What measured log10(DC50) goes with CCC(CC)N1CCN(Cc2ccn3ncc(N4CCC(=O)NC4=O)c3c2)CC1 [Example 164] ?
[A] 2.51
